Molecular target: Gal(b1-4)GlcNAc(b1-2)Man(a1-3)[Gal(b1-4)GlcNAc(b1-2)Man(a1-6)][GlcNAc(b1-4)]Man(b1-4)GlcNAc(b1-4)[Fuc(a1-6)]GlcNAc
Experiment: glycan array binding signal (z-score within array); higher = stronger binding
Details: glycan notation: IUPAC condensed, linker removed
Shown is part of a subset that was picked to be rich in the strongest signals.
Consider the following binders; for each one, report its glycan array binding signal (z-score).
Form rule: numeric answer, no unit written next to it.

Prompt: Suppose we examine the binder SSR1 (Sclerotium rolfsii), A0A0M3KL30 (protein) TYKITVRVYQTNPDAFFHPVEKTVWKYANGGTWTITDDQHVLTMGGSGTSGTLRFHADNGESFTATFGVHNYKRWCDIVTNLAADETGMVINQQYYSQKNREEARERQLSNYQVKNAKGRNFQIVYTEAEGNDLHANLIIG ; what glycan array binding signal (z-score) value has been reported?
Response: -0.334

Prompt: Requested read-out: glycan array binding signal (z-score). Entry: SAOUHSC 02783 (Staphylococcus aureus), Q5HD69 (protein) MIHSKKLTLGICLVLLIILIVGYVIMTKTNGRNAQIKDTFNQTLKLYPTKNLDDFYDKEGFRDQEFKKGDKGTWIVNSEMVIEPKGKDMETRGMVLYINRNTRTTKGYYFISEMTDDSNGRPKDDEKRYPVKMEHNKIIPTKPLPNDKLKKEIENFKFFVQYGNFKDINDYKDGDISYNPNVPSYSAKYQLNNDDYNVQQLRKRYDIPTKQAPKLLLKGDGDLKGSSVGSRSLEFTFVENKEENIYFTDSVQYTPSEDTRYESN
Response: -0.077

Prompt: Quick check: glycan array binding signal (z-score) of HBHA-Rv (Mycobacterium tuberculosum), P0A5P6 (protein) MAENSNIDDIKAPLLAALGAADLALATVNELITNLRERAEETRTDTRSRVEESRARLTKLQEDLPEQLTELREKFTAEELRKAAEGYLEAATSRYNELVERGEAALERLRSQQSFEEVSARAEGYVDQAVELTQEALGTVASQTRAVGERAAKLVGIELPKKAAPAKKAAPAKKAAPAKKAAAKKAPAKKAAAKKVTQK ?
Response: -0.352

Prompt: So what does the record say about glycan array binding signal (z-score) for Aap lectin (Staphylococcus epidermidis) (protein) VNLNYSSPFMSLLSMPADSSSNNTKNTIDIPPTTVKGRDNYDFYGRVDIESNPTDLNATNLTRYNYGQPPGTTTAGAVQFKNQVSFDKDFDFNIRVANNRQSNTTGADGWGFMFSKKDGDDFLKNGGILREKGTPSAAGFRIDTGYYNNDPLDKIQKQAGQGYRGYGTFVKNDSQGNTSKVGSGTPSTDFLNYADNTTNDLDGKFHGQKLNNVNLKYNASNQTFTATYAGKTWTATLSELGLSPTDSYNFLVTSS ?
Response: 0.361

Prompt: glycan array binding signal (z-score) lookup needed for Wzz (Escherichia coli) (protein) MRTWKFPSVRVMMRVENNNVSGQNHDPEQIDLIDLLVQLWRGKMTIIISVIVAIVLAIGYLAVAKEKWTSTAIITQPDVGQIAGYNNAMNVIYGQAAPKVSDLQETLIGRFSSAFSALAETLDNQEEPEKLTIEPSVKNQQLPLTVSYVGQTAEGAQMKLAQYIQQVDDKVNQELEKDLKDNIALGRKNLQDSLRTQEVVAQEQKDLRIRQIQEALQYANQAQVTKPQIQQTGEDITQDTLFLLGSEALESMIKHEATRPLVFSSNYYQTRQNLLDIDNLDVDKLDIHAYLYVMKPTLPIRRDSPKKAITLILAVLLGGMVGAGIVLGRNALRNYNAK , thanks.
Response: -0.511

Prompt: Look up glycan array binding signal (z-score): Clone730PsrP (Streptococcus pneumoniae) (protein) MDHHHHHHHHHHASENLYFQGAMVVGSQTAAATEATAKKVEEDRKKPASDYVASVTNVNLQSYAKRRKRSVDSIEQLLASIKNAAVFSGNTIVNGAPAINASLNIAKSETKVYTGEGVDSVYRVPIYYKLKVTNDGSKLTFTYTVTYVNPKTNDLGNISSMRPGYSIYNSGTSTQTMLTLGSDLGKPSGVKNYITDKNGRQVLSYNTSTMTTQGSGYTWGNGAQMNGFFAKKGYGLTSSWTVPITGTDTSFTFTPYAARTDRIGINYFNGGGKVVESSTT
Response: -0.249
